Values were extracted from patent US12291516B2.

assayed.system: UniProt Q06187
protocol.text: In house ELISA kinase inhibition assay, BTK
Assay type: biochemical
assay.context: footnote b: from in house procedure (ELISA)
pIC50: −log10 of the molar value.
Would you please tag the item Criterion met when its pIC50 is 7 or above, and Criterion not met when it is below?

[ask] Entry CCc1ccnc(NC(=O)c2ccc(-c3nc([C@@H]4CCCCN4C(=O)/C(C#N)=C/C4CC4)n(N)c3C(N)=O)cc2)c1 [Example 78] : is its pIC50 no less than 7?
[reply] Criterion not met

[ask] Entry C=CC(=O)N1CCCC[C@H]1c1nc(-c2ccc(C(=O)Nc3cc(C(C)C)ccn3)cc2)c(C(N)=O)n1N [Example 71] : is its pIC50 no less than 7?
[reply] Criterion met

[ask] Entry C=CC(=O)N1CCC[C@H]1c1nc(-c2ccc(C(=O)Nc3ccccn3)cc2)c(C(N)=O)n1N [Example 1] : is its pIC50 no less than 7?
[reply] Criterion not met

[ask] Entry CCc1ccnc(NC(=O)c2ccc(-c3nc([C@@H]4CCCCN4C(=O)/C(C#N)=C/C(C)C)n(N)c3C(N)=O)cc2)c1 [Example 79] : is its pIC50 no less than 7?
[reply] Criterion not met

[ask] Entry CC#CC(=O)N1CCC[C@H]1c1nc(-c2ccc(C(=O)Nc3cc(C(F)(F)F)ccn3)cc2)c(C(N)=O)n1N [Example 43] : is its pIC50 no less than 7?
[reply] Criterion not met

[ask] Entry CC#CC(=O)N1CCCC[C@H]1c1nc(-c2ccc(C(=O)Nc3cc(-c4ccccc4)ccn3)cc2)c(C(N)=O)n1N [Example 66] : is its pIC50 no less than 7?
[reply] Criterion met

[ask] Entry C=CC(=O)N1CCCC[C@H]1c1nc(-c2ccc(C(=O)Nc3cc(-c4ccccc4)ccn3)cc2)c(C(N)=O)n1N [Example 65] : is its pIC50 no less than 7?
[reply] Criterion met

[ask] Entry CCc1ccnc(NC(=O)c2ccc(-c3nc([C@@H]4CCCN4C#N)n(N)c3C(N)=O)cc2)c1 [Example 39] : is its pIC50 no less than 7?
[reply] Criterion not met

[ask] Entry C=CC(=O)N1CCCC[C@H]1c1nc(-c2ccc(C(=O)Nc3cc(OC)ccn3)cc2)c(C(N)=O)n1N [Example 67] : is its pIC50 no less than 7?
[reply] Criterion met

[ask] Entry C#CC(=O)N1CCCC[C@H]1c1nc(-c2ccc(C(=O)Nc3cc(Cl)ccn3)cc2)c(C(N)=O)n1N [Example 99] : is its pIC50 no less than 7?
[reply] Criterion met

[ask] Entry C=CC(=O)N1CCCC[C@H]1c1nc(-c2ccc(C(=O)Nc3cc(-c4ccc(Cl)cc4)ccn3)cc2)c(C(N)=O)n1N [Example 109] : is its pIC50 no less than 7?
[reply] Criterion met

====

Form field: IC50 (one value per entry).
assayed.system: BTK (Homo sapiens (Human), UniProt Q06187)
Sequence (Q06187 whole entry): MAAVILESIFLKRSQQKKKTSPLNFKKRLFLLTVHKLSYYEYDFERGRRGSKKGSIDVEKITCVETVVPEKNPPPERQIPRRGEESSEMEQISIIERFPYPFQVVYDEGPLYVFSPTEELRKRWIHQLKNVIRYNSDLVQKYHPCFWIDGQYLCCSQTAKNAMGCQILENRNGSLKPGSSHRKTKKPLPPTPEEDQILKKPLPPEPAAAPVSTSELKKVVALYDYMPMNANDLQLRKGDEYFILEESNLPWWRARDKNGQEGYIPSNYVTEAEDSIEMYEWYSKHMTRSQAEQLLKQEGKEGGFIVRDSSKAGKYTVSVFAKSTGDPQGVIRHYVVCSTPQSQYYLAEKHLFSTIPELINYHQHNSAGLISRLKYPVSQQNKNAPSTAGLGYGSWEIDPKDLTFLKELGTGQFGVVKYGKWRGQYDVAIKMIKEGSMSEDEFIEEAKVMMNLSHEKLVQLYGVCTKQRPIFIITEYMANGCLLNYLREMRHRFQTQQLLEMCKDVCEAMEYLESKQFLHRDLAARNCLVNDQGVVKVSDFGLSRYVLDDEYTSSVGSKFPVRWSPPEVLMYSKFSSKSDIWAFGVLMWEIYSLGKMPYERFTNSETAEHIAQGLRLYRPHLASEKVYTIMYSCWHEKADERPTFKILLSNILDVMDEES
protocol.text: In house ELISA kinase inhibition assay, BTK
Type: biochemical
assay.context: footnote b: from in house procedure (ELISA)
// note: answer is a bare numeric in nM

| mol.smiles | IC50 / nM |
| --- | --- |
| C=CC(=O)N1CCC[C@H]1c1nc(-c2ccc(C(=O)Nc3cc(C(C)C)ccn3)cc2)c(C(N)=O)n1N | 122 |
| CC#CC(=O)N1CCC[C@H]1c1nc(-c2ccc(C(=O)Nc3ccc(C)cn3)cc2)c(C(N)=O)n1N | 2060 |
| CC#CC(=O)N1CCCC[C@H]1c1nc(-c2ccc(C(=O)Nc3cc(C(F)(F)F)ccn3)cc2)c(C(N)=O)n1N | 7.29 |

Then this compound:
[ask] Need IC50 of C=CC(=O)N1CCCC[C@H]1c1nc(-c2ccc(C(=O)Nc3cc(Cl)ccn3)cc2)c(C(N)=O)n1N , thanks.
[reply] 11.2

====

The following compounds have recorded pIC50 on BMX (Homo sapiens (Human)).
Sequence (P51813 whole entry): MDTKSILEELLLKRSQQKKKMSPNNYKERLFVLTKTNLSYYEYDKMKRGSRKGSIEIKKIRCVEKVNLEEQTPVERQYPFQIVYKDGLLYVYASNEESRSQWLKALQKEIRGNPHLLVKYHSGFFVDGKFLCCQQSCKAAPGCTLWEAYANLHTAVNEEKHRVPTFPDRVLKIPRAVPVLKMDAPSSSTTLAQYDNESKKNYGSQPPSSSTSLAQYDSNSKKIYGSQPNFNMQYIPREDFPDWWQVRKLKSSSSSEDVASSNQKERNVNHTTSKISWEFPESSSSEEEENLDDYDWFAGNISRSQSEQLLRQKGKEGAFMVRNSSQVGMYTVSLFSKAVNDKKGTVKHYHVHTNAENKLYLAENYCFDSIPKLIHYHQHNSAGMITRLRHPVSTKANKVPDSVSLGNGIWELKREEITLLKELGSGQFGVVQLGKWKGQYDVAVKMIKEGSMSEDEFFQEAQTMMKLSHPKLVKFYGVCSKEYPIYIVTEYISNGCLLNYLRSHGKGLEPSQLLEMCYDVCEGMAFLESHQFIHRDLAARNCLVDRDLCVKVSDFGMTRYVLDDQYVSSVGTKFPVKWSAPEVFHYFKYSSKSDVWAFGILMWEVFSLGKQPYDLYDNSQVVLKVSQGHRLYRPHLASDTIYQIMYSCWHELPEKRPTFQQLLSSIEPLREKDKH
// scale note: pIC50 = -log10(conc_M); give the bare number

| mol.smiles | pIC50 |
| --- | --- |
| CC#CC(=O)N1CCCC[C@H]1c1nc(-c2ccc(C(=O)Nc3cc(Cl)ccn3)cc2)c(C(N)=O)n1N | 5.97 |

Then this compound:
[ask] Need pIC50 of C=CC(=O)N1CCCC[C@H]1c1nc(-c2ccc(C(=O)Nc3cc(C(F)(F)F)ccn3)cc2)c(C(N)=O)n1N , thanks.
[reply] 6.94

====

Form field: Selectivity ratio (one value per entry).
assayed.system: ITK (Homo sapiens (Human), UniProt Q08881)
Sequence (Q08881 whole entry): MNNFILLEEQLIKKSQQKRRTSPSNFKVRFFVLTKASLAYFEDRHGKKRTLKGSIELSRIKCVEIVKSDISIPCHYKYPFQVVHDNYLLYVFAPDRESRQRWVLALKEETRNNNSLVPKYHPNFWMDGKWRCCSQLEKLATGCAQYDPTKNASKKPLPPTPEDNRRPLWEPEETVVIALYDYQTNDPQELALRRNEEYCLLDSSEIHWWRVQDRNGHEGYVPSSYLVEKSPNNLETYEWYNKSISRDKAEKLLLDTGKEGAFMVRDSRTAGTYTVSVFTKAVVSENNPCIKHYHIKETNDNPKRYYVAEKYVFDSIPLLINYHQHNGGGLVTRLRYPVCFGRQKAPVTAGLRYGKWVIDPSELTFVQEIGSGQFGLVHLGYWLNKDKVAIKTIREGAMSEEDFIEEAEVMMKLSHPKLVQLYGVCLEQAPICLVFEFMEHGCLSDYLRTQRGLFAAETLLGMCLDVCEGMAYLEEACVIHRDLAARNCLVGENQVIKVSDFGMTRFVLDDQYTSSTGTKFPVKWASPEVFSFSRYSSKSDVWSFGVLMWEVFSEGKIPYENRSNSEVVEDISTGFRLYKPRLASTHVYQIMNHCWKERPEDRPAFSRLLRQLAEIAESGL
protocol.text: In house ELISA kinase inhibition assay, ITK
Format: biochemical
assay.context: selectivity for BTK and ITK
# respond with the number and nothing more

| mol.smiles | Selectivity ratio |
| --- | --- |
| CC#CC(=O)N1CCCC[C@H]1c1nc(-c2ccc(C(=O)Nc3cc(Cl)ccn3)cc2)c(C(N)=O)n1N | 850 |
| CC#CC(=O)N1CCCC[C@H]1c1nc(-c2ccc(C(=O)Nc3cc(C(F)(F)F)ccn3)cc2)c(C(N)=O)n1N | 4115 |
| CC#CC(=O)N1CCCC[C@H]1c1nc(-c2ccc(C(=O)Nc3cc(-c4ccc(F)cc4)ccn3)cc2)c(C(N)=O)n1N | 2255 |
| CC#CC(=O)N1CCCC[C@H]1c1nc(-c2ccc(C(=O)Nc3cc(I)ccn3)cc2)c(C(N)=O)n1N | 49.9 |

Then this compound:
[ask] Need Selectivity ratio of C=CC(=O)N1CCCC[C@H]1c1nc(-c2ccc(C(=O)Nc3cc(C(F)(F)F)ccn3)cc2)c(C(N)=O)n1N , thanks.
[reply] 175.6

====

protocol.text: Rat pharmacokinetic assay
Format: in vivo
assay.context: male, Sprague-Dawley, plasma, po 10 mg/kg, read-out: Cmax
assay.metric: Cmax (ng/mL)
// note: answer is a bare numeric in ng/mL

[ask] Need Cmax of CC#CC(=O)N1CCCC[C@H]1c1nc(-c2ccc(C(=O)Nc3cc(C(F)(F)F)ccn3)cc2)c(C(N)=O)n1N , thanks.
[reply] 723

====

protocol.text: Rat pharmacokinetic assay
Format: in vivo
assay.context: male, Sprague-Dawley, plasma, po 5 mg/kg, read-out: AUC
assay.metric: AUC

[ask] Need AUC of C=CC(=O)N1CCCC[C@H]1c1nc(-c2ccc(C(=O)Nc3cc(C(F)(F)F)ccn3)cc2)c(C(N)=O)n1N [Example 84] , thanks.
[reply] 2000 ng·h/mL

====

protocol.text: Rat pharmacokinetic assay
Type: in vivo
assay.context: male, Sprague-Dawley, plasma, iv 5 mg/kg
assay.metric: half-life
Please don't drop the unit; write it after the number.

[ask] Need half-life of C=CC(=O)N1CCCC[C@H]1c1nc(-c2ccc(C(=O)Nc3cc(C(F)(F)F)ccn3)cc2)c(C(N)=O)n1N , thanks.
[reply] 1.32 h

====

The following compounds have recorded IC50 on EGFR (Homo sapiens (Human), UniProt P00533).
Sequence (P00533 25-1210): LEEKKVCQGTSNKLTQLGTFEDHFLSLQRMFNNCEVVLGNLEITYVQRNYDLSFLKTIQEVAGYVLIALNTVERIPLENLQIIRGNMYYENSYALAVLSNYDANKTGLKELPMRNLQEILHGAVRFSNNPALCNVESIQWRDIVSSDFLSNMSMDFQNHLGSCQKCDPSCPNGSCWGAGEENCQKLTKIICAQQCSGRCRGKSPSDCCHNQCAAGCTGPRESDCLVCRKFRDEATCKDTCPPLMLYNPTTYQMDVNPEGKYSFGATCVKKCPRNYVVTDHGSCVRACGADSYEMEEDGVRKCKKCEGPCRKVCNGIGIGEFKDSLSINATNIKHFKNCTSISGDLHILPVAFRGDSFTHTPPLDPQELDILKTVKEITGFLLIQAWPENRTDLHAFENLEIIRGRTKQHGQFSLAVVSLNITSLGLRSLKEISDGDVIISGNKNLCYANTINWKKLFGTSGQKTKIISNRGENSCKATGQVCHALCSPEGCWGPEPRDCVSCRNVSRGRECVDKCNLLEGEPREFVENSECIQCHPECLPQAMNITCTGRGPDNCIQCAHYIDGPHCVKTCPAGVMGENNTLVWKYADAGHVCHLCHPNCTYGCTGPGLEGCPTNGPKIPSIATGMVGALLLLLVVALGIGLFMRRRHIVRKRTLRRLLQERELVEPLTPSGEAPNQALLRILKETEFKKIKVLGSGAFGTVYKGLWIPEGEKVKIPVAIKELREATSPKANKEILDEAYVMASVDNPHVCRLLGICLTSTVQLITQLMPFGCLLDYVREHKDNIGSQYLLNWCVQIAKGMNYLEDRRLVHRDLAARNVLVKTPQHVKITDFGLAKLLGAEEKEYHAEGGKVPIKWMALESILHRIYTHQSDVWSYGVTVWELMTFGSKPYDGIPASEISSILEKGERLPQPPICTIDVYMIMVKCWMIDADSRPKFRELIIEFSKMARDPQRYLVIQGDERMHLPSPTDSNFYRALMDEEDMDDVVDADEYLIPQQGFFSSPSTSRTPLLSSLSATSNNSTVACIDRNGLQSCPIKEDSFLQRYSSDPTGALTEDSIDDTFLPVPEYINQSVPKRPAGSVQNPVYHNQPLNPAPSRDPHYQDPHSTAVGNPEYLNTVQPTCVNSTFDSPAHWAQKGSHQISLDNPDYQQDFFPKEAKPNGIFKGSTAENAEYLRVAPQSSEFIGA
// note: answer is a bare numeric in µM

| compound | IC50 / µM |
| --- | --- |
| CC#CC(=O)N1CCCC[C@H]1c1nc(-c2ccc(C(=O)Nc3cc(C(F)(F)F)ccn3)cc2)c(C(N)=O)n1N [Example 85] | 11.8 |

Then this compound:
[ask] Need IC50 of C=CC(=O)N1CCCC[C@H]1c1nc(-c2ccc(C(=O)Nc3cc(C(F)(F)F)ccn3)cc2)c(C(N)=O)n1N [Example 84] , thanks.
[reply] 0.156

====

assayed.system: UniProtKB Q06187
protocol.text: BTK inhibition assay by Reaction Biology Corporation (33P-ATP, filter-binding)
Assay type: biochemical
assay.context: footnote a: from Reaction Biology Corporation
assay.metric: pIC50
// scale note: pIC50 = -log10(conc_M); give the bare number

Field: example entries. Status: answers known.
| mol.smiles | pIC50 |
| --- | --- |
| C#CC(=O)N1CCC[C@H]1c1nc(-c2ccc(C(=O)Nc3ccc(C)cn3)cc2)c(C(N)=O)n1N | 7.90 |
| C=CC(=O)N1CCC[C@@H](c2nc(-c3ccc(C(=O)Nc4cc(CC)ccn4)cc3)c(C(N)=O)n2N)C1 | 7.84 |
| CC#CC(=O)N1CCCC[C@H]1c1nc(-c2ccc(C(=O)Nc3cc(-c4ccc(F)cc4)ccn3)cc2)c(C(N)=O)n1N | 7.83 |
| C=CC(=O)N1CCCC[C@H]1c1nc(-c2ccc(C(=O)Nc3cc(CC)ccn3)cc2)c(C(N)=O)n1N | 8.01 |
| C=CC(=O)N1CCCC[C@H]1c1nc(-c2ccc(C(=O)Nc3cc(Cl)ccn3)cc2)c(C(N)=O)n1N | 8.00 |
| CC#CC(=O)N1CCCC[C@H]1c1nc(-c2ccc(C(=O)Nc3cc(I)ccn3)cc2)c(C(N)=O)n1N | 7.97 |
| C#CC(=O)N1CCC[C@H]1c1nc(-c2ccc(C(=O)Nc3cc(OC)ccn3)cc2)c(C(N)=O)n1N | 7.87 |

[ask] Recorded pIC50 for C=CC(=O)N1CCCC[C@H]1c1nc(-c2ccc(C(=O)Nc3cc(CC)ccn3)cc2)c(C(N)=O)n1NC with UniProtKB Q06187, please?
[reply] 7.96
